Reported Galium plant response rating (0 to 100 scale) by item:
# Tested on: galium (catchweed bedstraw, Galium aparine)
# Method: Test A postemergence, visual plant response rating
# Assay type: in vivo
# Applied Conditions: 500 g ai/ha, postemergence; 0 is no effect, 100 is complete control
Output spec: single numeric token, no unit.

Check the records and state Galium plant response rating (0 to 100 scale) for `CO/N=C(/c1c(O)c(C)nn(C)c1=O)c1cc(Br)cc2ccccc12`
100

Check the records and state Galium plant response rating (0 to 100 scale) for C=CCn1nc(C)c(O)c(C(=NOC)c2cccc(Cl)c2)c1=O (mixture of isomers)
0

Check the records and state Galium plant response rating (0 to 100 scale) for `CO/N=C(\c1cccc(C)c1)c1c(O)c(C)nn(C)c1=O`
100

Check the records and state Galium plant response rating (0 to 100 scale) for `CCCO/N=C(\c1c(O)c(C)nn(C)c1=O)c1cccc2ccccc12`
90
